Tested on: RhoprCCAPR
experiment: Calcium mobilization assay with RhoprCCAPR expressed in CHO-K1 cells
Assay type: cell-based, Rhodnius prolixus
test.parameters: without promiscuous Gα, read-out: EC50 using CHO-K1 cells
Bridge positions count the residues as written; N and C are the ends. Ends that are not written are not given here.
reported.metric: pEC50
Just the number, please; pEC50 means minus log10 of the concentration in mol/L.

Summary line: PFCNAFTGC-NH2 (disulfide 3-9 (inferred)) [RhoprCCAP] , RhoprCCAPR, reported pEC50 = 6.47
